These entries and their values trace back to PubChem BioAssay (NCI).

System: HT29 colon
Assay: NCI-60 one-dose screen, 48 h (100 = growth as untreated, 0 = no growth, -100 = all killed)
Conditions: 10 µM unless noted
Compounds without any hit were thinned out: in the full panel of roughly 83,000, 20% have a hit.
Please respond with reported growth for every item in the list.
Answers are plain numbers, in %.

Solved entries:
line_notation=COc1ccc(NC(=O)c2cc(NCc3cc(O)ccc3O)ccc2O)cc1 tested_on="HT29 colon" recorded_number=89.7
line_notation=COc1ccc(/C=C2\Oc3cc(OCCCN4CCCCC4)ccc3C2=O)cc1OC tested_on="HT29 colon" recorded_number=59.3
line_notation=Oc1c(Cl)cc(Cl)c(Cl)c1CNCCNCc1c(O)c(Cl)cc(Cl)c1Cl tested_on="HT29 colon" recorded_number=26.8

For each of the items listed, what is its growth?
1. COc1ccc(C(=O)CSc2nc(-c3cc(OC)ccc3OC)cc(-c3ccc(Cl)cc3)c2C#N)cc1
2. C=C(CBr)[C@@H]1CC[C@]2(COC(C)=O)CC[C@]3(C)[C@H](CC[C@@H]4[C@@]5(C)CCCNC(C)(C)[C@@H]5CC[C@]43C)[C@@H]12

[48.3, 29.1]

For each of the items listed, what is its growth?
1. Cc1c(C)c([N+](=O)[O-])c(C)c([N+](=O)[O-])c1C
2. COc1ccc(C(=O)NNc2nc(Cl)nc(N3CCN(C(c4ccccc4)c4ccccc4)CC3)n2)cc1
3. C=C(C)[C@@H]1CC[C@]2(C(=O)N3CCN(C)CC3)CC[C@]3(C)[C@H](CC[C@@H]4[C@@]5(C)C/C(=C/c6ccncc6)C(=O)C(C)(C)[C@@H]5CC[C@]43C)[C@@H]12

1: 93.5; 2: -57.3; 3: 15.8

---

Please respond with reported growth for every item in the list.
System: SW-620 colon
Test: NCI-60 one-dose screen, 48 h (100 = growth as untreated, 0 = no growth, -100 = all killed)
Details: 10 µM unless noted
About 83,000 compounds went through this panel and 20% of them were active in at least one assay; those are over-represented in the sample as a whole.
Give bare numbers, in %.

Solved entries:
compound=COc1cc2nc(-c3ccc(Cl)cc3)cc(OCCCN3CCOCC3)c2cc1OC recorded_number=65
compound=COc1ccc(C(=O)NNc2nc(Cl)nc(N3CCN(C(c4ccccc4)c4ccccc4)CC3)n2)cc1 recorded_number=9.22

For each of the items listed, what is its growth?
1. Cc1c(C)c([N+](=O)[O-])c(C)c([N+](=O)[O-])c1C
2. COc1cc(C2=NN(C(C)=O)C(c3cc(OC)c(OC)c(OC)c3)C2)ccc1O (stereo not drawn)
3. COc1cc2c(c(O)c1Cl)C(=O)c1c(O)cc(C[C@H](C)O)cc1[C@H]2[C@H]1c2cc(C[C@H](C)O)cc(O)c2C(=O)c2c1cc(OC)c(Cl)c2O
4. Cc1ccc(NC(C(=O)c2ccccc2)c2ccccc2)cc1 (stereo not drawn)
5. CC(c1ccccc1)C(C(=O)c1ccccc1)c1ccccc1 (stereo not drawn)
6. O=C(Cn1c(C(=O)c2ccccc2)nc2ccccc21)c1ccc(F)cc1

1: 109; 2: 12.4; 3: 17.8; 4: 67.1; 5: 97.7; 6: 22.9

For each of the items listed, what is its growth?
1. Cc1ccc(C(=O)/C(=C\c2ccc([N+](=O)[O-])cc2)S(=O)Cc2ccc(F)cc2)cc1 (stereo not drawn)
2. CCCOc1ccc(/C=N/Nc2cc(C)nc3ccc(Br)cc23)cc1
3. COc1ccc(NC(N)=NCCCOc2ccc(F)cc2)cc1
4. CCN(CC)c1ccc(/C=N/NC(=O)CSc2nc3ccccc3c(=O)n2CCc2ccc(S(N)(=O)=O)cc2)c(O)c1
5. O=C(NCCNc1nccc(-c2c(-c3cccc(F)c3)nc3sccn23)n1)c1ccc(Cl)cc1
6. O=[N+]([O-])c1ccc(N=Nc2cc(S(=O)(=O)O)c3cccc(S(=O)(=O)O)c3c2O)cc1
7. NS(=O)(=O)c1ccc(CCN2C(=O)C3C(C2=O)C2(Cl)C(Cl)=C(Cl)C3(Cl)C2(Cl)Cl)cc1 (stereo not drawn)
8. O=S(=O)(NCCNc1nccc(-c2c(-c3cccc(O)c3)nc3occn23)n1)c1ccccc1

[-27.7, 6.14, 88.6, 27, 65.2, 112, 105, 103]

For each of the items listed, what is its growth?
1. CC[C@]12C=CCN3CC[C@@]4(c5cc(NC(=O)CCC(=O)O[C@H]6CC[C@H]7[C@@H]8CCC9=CC(=O)CC[C@@H]9[C@H]8CC[C@]67C)c(OC)cc5N(C)[C@H]4[C@@](O)(C(=O)OC)[C@@H]1OC(C)=O)[C@@H]32
2. COc1ccc(C(=O)Nc2cccc(C3CCc4c(cc(OC)c(OC)c4OC)O3)c2)cc1 (stereo not drawn)

1. 86.9
2. 28.8
